Reference source: patent US11224609B2

Here we list molecules with their recorded GI50 when tested on ES-8 Ewing sarcoma cells (EWS-FLI1 Type 2).
Write the value in µM as a bare number.

Use these answered entries as a reference point.
[[record]]
molecule = "COC(=O)C(Cc1cn(C)c2ccccc12)NC(=O)C(OC)C1Cc2cc3cc(OC4CC(OC5CC(O)C(O)C(C)O5)C(O)C(C)O4)c(C)c(O)c3c(O)c2C(=O)C1OC1CC(OC2CC(OC3CC(C)(O)C(O)C(C)O3)C(O)C(C)O2)C(O)C(C)O1 (stereo not shown)"
measured_metric = "GI50"
numeric_readout = 1.33

[[record]]
molecule = "COC(=O)C(Cc1ccccc1)NC(=O)C(Cc1c[nH]c2ccccc12)NC(=O)C(OC)C1Cc2cc3cc(OC4CC(OC5CC(O)C(O)C(C)O5)C(O)C(C)O4)c(C)c(O)c3c(O)c2C(=O)C1OC1CC(OC2CC(OC3CC(C)(O)C(O)C(C)O3)C(O)C(C)O2)C(O)C(C)O1 (stereo not shown)"
measured_metric = "GI50"
numeric_readout = 0.074

[[record]]
molecule = "COC(=O)C(Cc1c[nH]c2cc(F)ccc12)NC(=O)C(OC)C1Cc2cc3cc(OC4CC(OC5CC(O)C(O)C(C)O5)C(O)C(C)O4)c(C)c(O)c3c(O)c2C(=O)C1OC1CC(OC2CC(OC3CC(C)(O)C(O)C(C)O3)C(O)C(C)O2)C(O)C(C)O1 (stereo not shown)"
measured_metric = "GI50"
numeric_readout = 0.401


Prompt: Note GI50 for the molecule shown: COC(=O)C(Cc1c[nH]c2ccccc12)NC(=O)C(Cc1ccccc1)NC(=O)C(OC)C1Cc2cc3cc(OC4CC(OC5CC(O)C(O)C(C)O5)C(O)C(C)O4)c(C)c(O)c3c(O)c2C(=O)C1OC1CC(OC2CC(OC3CC(C)(O)C(O)C(C)O3)C(O)C(C)O2)C(O)C(C)O1 (stereo not shown)
Response: 0.053

###

# Tested on: TC-71 Ewing sarcoma cells (EWS-FLI1 Type 1)
# test.conditions: 72 h growth inhibition
measured.metric: TC-71 EWS-FLI1 Type 1 GI50 (µM)
The reply should contain only the number, in µM.

Here are 2 molecules together with their reported answers.
[[record]]
molecule = "COC(=O)C(Cc1c[nH]c2ccccc12)NC(=O)C(OC)C1Cc2cc3cc(OC4CC(OC5CC(O)C(O)C(C)O5)C(O)C(C)O4)c(C)c(O)c3c(O)c2C(=O)C1OC1CC(OC2CC(OC3CC(C)(O)C(O)C(C)O3)C(O)C(C)O2)C(O)C(C)O1 (stereo not drawn) [MTMSA-Trp (3), Mithramycin SA-Tryptophan, reference compound]"
assayed_target = "TC-71 Ewing sarcoma cells (EWS-FLI1 Type 1)"
measured_metric = "TC-71 EWS-FLI1 Type 1 GI50"
numeric_readout = 0.057

[[record]]
molecule = "COC(=O)C(Cc1c[nH]c2ccccc12)NC(=O)C(Cc1c[nH]c2ccccc12)NC(=O)C(OC)C1Cc2cc3cc(OC4CC(OC5CC(O)C(O)C(C)O5)C(O)C(C)O4)c(C)c(O)c3c(O)c2C(=O)C1OC1CC(OC2CC(OC3CC(C)(O)C(O)C(C)O3)C(O)C(C)O2)C(O)C(C)O1 (stereo not drawn)"
assayed_target = "TC-71 Ewing sarcoma cells (EWS-FLI1 Type 1)"
measured_metric = "TC-71 EWS-FLI1 Type 1 GI50"
numeric_readout = 0.035


Now look at this entry.
Prompt: Fill in TC-71 EWS-FLI1 Type 1 GI50 for record COC(=O)C(Cc1c[nH]c2ccccc12)NC(=O)C(Cc1ccccc1)NC(=O)C(OC)C1Cc2cc3cc(OC4CC(OC5CC(O)C(O)C(C)O5)C(O)C(C)O4)c(C)c(O)c3c(O)c2C(=O)C1OC1CC(OC2CC(OC3CC(C)(O)C(O)C(C)O3)C(O)C(C)O2)C(O)C(C)O1 (stereo not drawn)
Response: 0.044
